Test system: MDA-MB-468 breast
Assay: NCI-60 one-dose screen, 48 h
Details: 10 µM unless noted
This is part of a sample that, as a whole, favours compounds with a hit. Of some 83,000 tested, about 20% had one in any assay. Activity calls are given as the source filed them. Rule for the calls: active = growth percent below 10; inactive = the rest.
Outcomes: yes (active), no (inactive)

{"columns": ["MOLECULE", "CATEGORY_LABEL"],
 "data": [
  ["CCCC1CCCCN1C(=O)OCC(C)C (stereo not given)", "no"],
  ["COc1nc(=O)n(C2C=CC(=O)O2)cc1F (stereo not given)", "no"],
  ["CC(C)CNCC(O)COc1ccc(C(C)(C)c2ccc(OCC(O)CNCC(C)C)cc2)cc1 (stereo not given)", "no"],
  ["O=C1/C(=C/c2ccccn2)NC(=S)N1c1ccccc1Cl", "no"],
  ["COc1nc2ccccc2cc1/C=[N+](\\[O-])c1ccccc1", "no"],
  ["CCN(CC)c1ccc(-c2cc(-c3cc(OC)c(OC)c(OC)c3)nc(N3CCOCC3)c2C#N)cc1", "no"],
  ["CN1CCN(c2ccc3nc(-c4ccc5nc(-c6ccc(C(F)(F)F)cc6)[nH]c5c4)[nH]c3c2)CC1", "no"],
  ["Cc1c2c(cc[n+]1Cc1ccccc1)c1ccc(OCC3CCCCC3)cc1n2CC1CCCCC1", "yes"],
  ["CC(=O)Nc1cccc(C2=CC(c3ccc(C)cc3)n3ncnc3N2)c1 (stereo not given)", "no"],
  ["CC(=O)NCC1c2c(n(C)c3c(Cl)c(Cl)ccc23)C(=O)NC1(C)C (stereo not given)", "no"]
]}
